The measured values listed here are drawn from the Kinase Knowledgebase extract (Sharma et al. 2016).

Target: PIK3CD (Human) (UniProt O00329)
Sequence (O00329 whole entry, looked up): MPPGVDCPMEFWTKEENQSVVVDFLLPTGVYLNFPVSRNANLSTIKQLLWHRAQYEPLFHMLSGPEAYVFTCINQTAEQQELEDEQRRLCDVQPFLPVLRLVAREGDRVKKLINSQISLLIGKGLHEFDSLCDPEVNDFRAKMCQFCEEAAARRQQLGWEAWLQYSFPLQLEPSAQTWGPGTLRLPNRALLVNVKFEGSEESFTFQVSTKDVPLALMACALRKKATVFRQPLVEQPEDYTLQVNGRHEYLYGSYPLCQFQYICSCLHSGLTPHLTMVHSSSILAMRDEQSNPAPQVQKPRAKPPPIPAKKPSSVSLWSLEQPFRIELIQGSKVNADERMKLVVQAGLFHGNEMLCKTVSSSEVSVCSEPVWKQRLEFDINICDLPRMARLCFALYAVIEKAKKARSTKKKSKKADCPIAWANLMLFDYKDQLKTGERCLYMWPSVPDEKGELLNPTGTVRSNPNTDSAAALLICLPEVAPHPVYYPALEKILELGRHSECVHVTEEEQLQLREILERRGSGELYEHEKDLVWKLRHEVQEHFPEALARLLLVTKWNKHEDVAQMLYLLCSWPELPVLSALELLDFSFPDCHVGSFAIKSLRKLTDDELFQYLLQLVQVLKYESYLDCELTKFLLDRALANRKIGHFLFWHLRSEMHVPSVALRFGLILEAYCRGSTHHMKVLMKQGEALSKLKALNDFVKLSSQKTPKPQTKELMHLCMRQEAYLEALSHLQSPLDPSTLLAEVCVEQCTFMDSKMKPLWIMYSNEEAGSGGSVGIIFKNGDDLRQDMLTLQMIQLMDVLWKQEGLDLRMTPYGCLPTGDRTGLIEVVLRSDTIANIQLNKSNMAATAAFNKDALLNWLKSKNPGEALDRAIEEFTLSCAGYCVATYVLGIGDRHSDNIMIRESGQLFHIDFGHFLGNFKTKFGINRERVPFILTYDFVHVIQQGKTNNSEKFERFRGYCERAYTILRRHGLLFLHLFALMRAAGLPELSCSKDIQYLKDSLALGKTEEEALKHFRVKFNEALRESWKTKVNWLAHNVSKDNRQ
Attribute: pIC50
# reply with the number alone; pIC50 is -log10 of concentration in mol/L

Study these solved cases before continuing.
| mol | measured_attribute | measured_number |
| --- | --- | --- |
| Nc1cnc(-n2c([C@@H](Nc3ncnc(N)c3Cl)C3CC3)nc3c(Cl)ccc(Cl)c3c2=O)cn1 | pIC50 | 7.59 |
| C[C@H](Nc1ncnc(N)c1Cl)c1nc2cccc(Cl)c2c(=O)n1-c1cnc(N)cn1 | pIC50 | 7.27 |

Now look at this entry.
Log: PIK3CD (Human) (UniProt O00329), molecule `C[C@H](Nc1nc(N)nc(N)c1Cl)c1nc2c(F)cc(F)cc2c(=O)n1-c1cnc(N)cn1` , pIC50 = 6.11

----------
// UniProt:P42338 pIC50 records
Sequence (P42338 whole entry, looked up): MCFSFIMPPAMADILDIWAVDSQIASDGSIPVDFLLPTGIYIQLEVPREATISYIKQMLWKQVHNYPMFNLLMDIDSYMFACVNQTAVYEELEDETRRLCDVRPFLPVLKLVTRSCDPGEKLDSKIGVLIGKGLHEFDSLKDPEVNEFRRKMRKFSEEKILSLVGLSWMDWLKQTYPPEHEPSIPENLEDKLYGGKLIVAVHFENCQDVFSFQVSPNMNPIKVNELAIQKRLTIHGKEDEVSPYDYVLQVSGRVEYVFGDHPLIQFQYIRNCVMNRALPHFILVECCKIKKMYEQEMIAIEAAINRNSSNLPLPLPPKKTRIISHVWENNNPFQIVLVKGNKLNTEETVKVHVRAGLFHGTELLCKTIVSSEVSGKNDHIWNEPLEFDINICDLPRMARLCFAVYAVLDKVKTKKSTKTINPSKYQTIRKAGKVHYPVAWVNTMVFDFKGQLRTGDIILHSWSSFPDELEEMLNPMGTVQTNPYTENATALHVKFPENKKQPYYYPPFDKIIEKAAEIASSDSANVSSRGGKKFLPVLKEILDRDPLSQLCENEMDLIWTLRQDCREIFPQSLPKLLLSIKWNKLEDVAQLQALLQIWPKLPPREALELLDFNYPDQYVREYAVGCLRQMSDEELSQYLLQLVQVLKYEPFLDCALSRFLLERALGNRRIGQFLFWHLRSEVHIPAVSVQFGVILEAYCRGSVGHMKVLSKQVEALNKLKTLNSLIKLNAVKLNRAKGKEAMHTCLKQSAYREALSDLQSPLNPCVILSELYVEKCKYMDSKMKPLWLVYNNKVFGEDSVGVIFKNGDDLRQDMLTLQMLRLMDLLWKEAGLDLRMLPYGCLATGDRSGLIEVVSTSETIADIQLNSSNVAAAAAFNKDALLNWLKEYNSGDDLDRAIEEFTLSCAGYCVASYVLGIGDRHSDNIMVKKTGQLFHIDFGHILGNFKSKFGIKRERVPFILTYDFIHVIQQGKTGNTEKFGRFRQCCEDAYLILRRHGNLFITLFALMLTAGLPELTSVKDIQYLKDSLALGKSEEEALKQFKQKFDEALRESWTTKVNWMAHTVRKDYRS
Lab note: report pIC50 as minus log10 of the concentration in molar units, number only.

| mol | measured_number |
| --- | --- |
| C[C@H](Nc1ncnc(N)c1Cl)c1nc2cccc(Cl)c2c(=O)n1-c1cnc(N)cn1 | 6.44 |

Now look at this one.
pIC50 reading for `Nc1cnc(-n2c([C@@H](Nc3ncnc(N)c3Cl)C3CC3)nc3cccc(Cl)c3c2=O)cn1` : 6.14
